Property: solubility (mole fraction); scope: individual compounds
- condition label: in water, 318.15 K
Respond with the number and no other words.

> print(dat)
                                   molecule               quantity.kind  experimental.value
1  CCCCCCCC[n+]1csc2ccccc21.F[P-](F)(F)(F)(F)F  solubility (mole fraction)            9.11e-05
2  CCCCCC[n+]1csc2ccccc21.F[P-](F)(F)(F)(F)F  solubility (mole fraction)            0.000129

Problem: If you can, please state the reported solubility (mole fraction) value of CCCCCCC[n+]1csc2ccccc21.F[P-](F)(F)(F)(F)F .
Result: 0.000106

Problem: Try this compound next: CCCCC[n+]1csc2ccccc21.F[P-](F)(F)(F)(F)F
Result: 0.00013

###

- condition label: in furfural, 301.03 K
quantity kind: solubility (mole fraction)
Respond with the number and no other words.

Problem: If you can, please state the reported solubility (mole fraction) value of CCCCCC[n+]1csc2ccccc21.F[P-](F)(F)(F)(F)F .
Result: 0.321

###

- condition label: in furfural, 333.5 K
quantity kind: solubility (mole fraction)
Respond with the number and no other words.

Problem: If you can, please state the reported solubility (mole fraction) value of CCCCCC[n+]1csc2ccccc21.F[P-](F)(F)(F)(F)F .
Result: 0.581

###

- condition label: in furfural, 311.66 K
quantity kind: solubility (mole fraction)
Respond with the number and no other words.

Problem: If you can, please state the reported solubility (mole fraction) value of CCCCCCCC[n+]1csc2ccccc21.F[P-](F)(F)(F)(F)F .
Result: 0.711

###

- condition label: in water, 357.95 K
quantity kind: solubility (mole fraction)
Respond with the number and no other words.

Problem: If you can, please state the reported solubility (mole fraction) value of CCCCC[n+]1csc2ccccc21.F[P-](F)(F)(F)(F)F .
Result: 0.000676

###

- condition label: in furfural, 298.35 K
quantity kind: solubility (mole fraction)
Respond with the number and no other words.

Problem: If you can, please state the reported solubility (mole fraction) value of CCCC[n+]1csc2ccccc21.F[P-](F)(F)(F)(F)F .
Result: 0.246

###

- condition label: in water, 298.15 K
quantity kind: solubility (mole fraction)
Respond with the number and no other words.

> print(dat)
                                  molecule  experimental.value
1  CCCC[n+]1csc2ccccc21.F[P-](F)(F)(F)(F)F            0.000168

Now for another entry.
Problem: If you can, please state the reported solubility (mole fraction) value of CCCCCC[n+]1csc2ccccc21.F[P-](F)(F)(F)(F)F .
Result: 6.5e-05

###

- condition label: in furfural, 288.25 K
quantity kind: solubility (mole fraction)
Respond with the number and no other words.

Problem: If you can, please state the reported solubility (mole fraction) value of CCCC[n+]1csc2ccccc21.F[P-](F)(F)(F)(F)F .
Result: 0.205

###

- condition label: in furfural, 290.19 K
quantity kind: solubility (mole fraction)

Problem: If you can, please state the reported solubility (mole fraction) value of CCCCCC[n+]1csc2ccccc21.F[P-](F)(F)(F)(F)F .
Result: 0.269

###

- condition label: in water, 289.15 K
quantity kind: solubility (mole fraction)
Respond with the number and no other words.

Problem: If you can, please state the reported solubility (mole fraction) value of CCCCCC[n+]1csc2ccccc21.F[P-](F)(F)(F)(F)F .
Result: 4.3e-05
